# Tested on: MR1 molecule
# Method summary: co-expression reporter cell assay: MR1 surface expression by flow cytometry
# Type: cell-based
# Test parameters: co-expression reporter cells, 37°C, 6-20 hr, MFI by flow cytometry
Recorded metric: expression of MR1 molecules on the T cell surface

# Entry smiles, Result
rows = [
    ("C[C@H](CCC(=O)NCCS(=O)(=O)O)[C@H]1CC[C@H]2[C@@H]3[C@H](OS(=O)(=O)O)C[C@@H]4C[C@H](O)CC[C@]4(C)[C@H]3C[C@H](O)[C@]12C", "showed no activity"),
    ("C[C@H](CCC(=O)NCCS(=O)(=O)O)[C@H]1CC[C@H]2[C@@H]3[C@H](O)C[C@@H]4C[C@H](OS(=O)(=O)O)CC[C@]4(C)[C@H]3C[C@H](O)[C@]12C", "showed no activity"),
]
